Target: rCYP4F2 (Homo sapiens)
Sequence (P78329 5-520): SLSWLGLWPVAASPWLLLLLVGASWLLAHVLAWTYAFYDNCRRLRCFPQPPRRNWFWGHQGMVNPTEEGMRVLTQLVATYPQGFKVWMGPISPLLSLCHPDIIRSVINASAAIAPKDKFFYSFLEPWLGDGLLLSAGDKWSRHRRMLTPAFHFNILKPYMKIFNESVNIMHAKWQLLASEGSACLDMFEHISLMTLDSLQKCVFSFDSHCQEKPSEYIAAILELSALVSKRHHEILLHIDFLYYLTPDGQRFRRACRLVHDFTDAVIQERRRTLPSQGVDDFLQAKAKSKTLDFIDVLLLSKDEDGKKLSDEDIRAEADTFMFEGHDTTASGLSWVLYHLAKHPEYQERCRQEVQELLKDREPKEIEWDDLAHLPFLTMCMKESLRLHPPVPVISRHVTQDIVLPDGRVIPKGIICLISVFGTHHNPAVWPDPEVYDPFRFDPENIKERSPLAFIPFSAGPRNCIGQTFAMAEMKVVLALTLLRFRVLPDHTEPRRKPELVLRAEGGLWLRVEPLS
Experiment: Inhibition of 20-HETE formation at 250 or 500 nM in rCYP4F2 incubations
Type: biochemical
Conditions: 500 nM compound; rCYP4F2 25 pmol/mL; read-out: rCYP4F2 % inh. @ 500 nM
Returns one of label 1 or label 0; label 1 when inhibition at 0.5 µM is >= 70%.

Assess whether reported inhibition at 0.5 µM for `Cc1ccccc1C1CCN(c2ccn[nH]2)CC1` sits at 70% or higher. label 0

// repeat for `COc1cc(F)cc(C2CCN(c3ccn[nH]3)CC2)c1` and report label 0

// repeat for `COc1cccc(CC2CCN(c3cn[nH]c3)CC2)c1` and report label 1

// repeat for `COc1cc(C2CCN(c3ccn[nH]3)CC2)ccn1` and report label 0

// repeat for `Fc1ccccc1SC1CCN(c2cn[nH]c2)CC1` and report label 1

// repeat for `COc1ccc(C2CCN(c3cn[nH]c3)CC2)cn1` and report label 0

// repeat for `Cc1ccccc1C1CCN(c2cn[nH]c2)CC1` and report label 0

// repeat for `O=C1CCCN1Cc1ccc(C2CCN(c3cn[nH]c3)CC2)cc1F` and report label 1

// repeat for `CC(=O)N(C)c1ccc(C2CCN(c3cn[nH]c3)CC2)cc1` and report label 0

====

Would you mind telling me the reported RLM % inh. @ 500 nM of each entry?
Test system: 20-HETE formation (CYP4) in RLM
Test: Inhibition of 20-HETE formation at 250 or 500 nM in RLM microsomal incubations
Type: biochemical, rat
Settings: 500 nM compound; RLM 300 μg/ml
Description: To screen the inhibitory effects against 20-HETE formation, compounds were screened in HLM, RLM, RKM and rCYP4F2 microsomal incubations. Compounds dissolved in either 100% methanol or 100% DMSO to yield 10 mM stock solution. […] 20-HETE formation was quantified using a validated UPLC-MS/MS assay and normalized by vehicle group. […] Quantitation of 20-HETE by SRM was performed by monitoring the m/z. Analytical data was acquired and analyzed using Xcaliber 3.0 data system (ThermoFinnigan, San Jose, CA).
Write it as a number; the unit % goes unstated.

Query (molecule): `O=C1CCCN1Cc1ccc(C2CCN(c3cn[nH]c3)CC2)cc1` ; field requested: RLM % inh. @ 500 nM 49.60

// repeat for `CS(=O)(=O)Cc1ccc(C2CCN(c3cn[nH]c3)CC2)cc1` and report 0.00

// repeat for `Cl.Clc1ccc(CC2CCN(c3cn[nH]c3)CC2)cc1` and report 74.30

// repeat for CC(Nc1ccc(C2CCN(c3cn[nH]c3)CC2)cc1)C(F)(F)F (stereo not shown) and report 36.00

// repeat for `O=S(=O)(c1ccccc1)C1CCN(c2cn[nH]c2)CC1` and report 0.00

// repeat for `c1ccc(OC2CCN(c3cn[nH]c3)CC2)cc1` and report 0.00

// repeat for `COc1ccc(SC2CCN(c3ccn[nH]3)CC2)cc1` and report 0

// repeat for `COc1ccc(C2CCN(c3cn[nH]c3)CC2)cc1Cl` and report 49.00

// repeat for `CS(=O)(=O)Nc1ccc(C2CCN(c3cn[nH]c3)CC2)cc1` and report 14.30

// repeat for `COC(=O)c1ccc(C2CCN(c3cn[nH]c3)CC2)cc1` and report 18.30

// repeat for `COc1ccc(C2CCN(c3cn[nH]c3)CC2)cc1` and report 25.90

// repeat for `COc1cccc(C2CCN(c3cn[nH]c3)CC2)c1` and report 45.50

// repeat for `CC(=O)N(C)c1ccc(C2CCN(c3ccn[nH]3)CC2)c(F)c1` and report 25.00

// repeat for `COc1cc(C2CCN(c3ccn[nH]3)CC2)ccn1` and report 29.00

// repeat for `Cc1ccc(CC2CCN(c3cn[nH]c3)CC2)cc1` and report 59.60

// repeat for `COc1cccc(SC2CCN(c3cn[nH]c3)CC2)c1` and report 0.00

// repeat for `COCc1ccc(C2CCN(c3ccn[nH]3)CC2)cc1` and report 21.30

// repeat for `c1cnc(C2CCN(c3cn[nH]c3)CC2)nc1` and report 0.00

// repeat for `Clc1ccc(CC2CCN(c3cn[nH]c3)CC2)cc1` and report 64.30

// repeat for `Cc1ccccc1C1CCN(c2ccn[nH]2)CC1` and report 0.00

// repeat for `CC(=O)N(C)c1ccc(C2CCN(c3ccn[nH]3)CC2)cc1` and report 8.00

// repeat for `O=S1(=O)CCc2cc(C3CCN(c4cn[nH]c4)CC3)ccc21` and report 0.00
